Recorded values, source paper doi:10.64898/2025.12.10.692519v1.

# System: TG-LAM-140-P0
# experimentalDetails: cells
# Design: species or system primary AML patient blasts
# conditions: 48 h, read-out: IC50 (µM) / AB8939
readoutType: IC50 (µM)
One number for each entry, in µM.

Query: Report IC50 for CCOCc1ccc(C)c(Nc2ncc(-c3ccc(N4CCNC4=O)cc3)o2)c1
Response: 0.06

----------
# System: U-118
# experimentalDetails: cells
# conditions: 144 h, read-out: AB8939
readoutType: pIC50
One number for each entry, as −log10 of the molar value.

Query: Report pIC50 for CCOCc1ccc(C)c(Nc2ncc(-c3ccc(N4CCNC4=O)cc3)o2)c1
Response: 9.00
